Test: Cytotoxicity against human HCT116/VM46 cells assessed as reduction in cell viability after 72 hrs by phosphatase assay
Type: cell-based
Details: HCT-116/VM46, 72 h
Record form. Attribute: IC50. Fill in for each entry.

Supply measured IC50 of "CC[C@]1(N=[N+]=[N-])C[C@H]2CN(CCc3c([nH]c4ccccc34)[C@@](C(=O)OC)(c3cc4c(cc3OC)N(C)[C@H]3[C@@](O)(C(=O)OC)[C@H](OC(C)=O)[C@]5(CC)C=CCN6CC[C@]43[C@@H]65)C2)C1" in your reply.
5500 nM

Supply measured IC50 of "CC[C@]1(NS(=O)(=O)c2ccc(OC)cc2)C[C@H]2CN(CCc3c([nH]c4ccccc34)[C@@](C(=O)OC)(c3cc4c(cc3OC)N(C)[C@H]3[C@@](O)(C(=O)OC)[C@H](OC(C)=O)[C@]5(CC)C=CCN6CC[C@]43[C@@H]65)C2)C1" in your reply.
240 nM

Supply measured IC50 of "CC[C@]1(NC(=O)c2ccc(CNC(=O)OC(C)(C)C)cc2)C[C@H]2CN(CCc3c([nH]c4ccccc34)[C@@](C(=O)OC)(c3cc4c(cc3OC)N(C)[C@H]3[C@@](O)(C(=O)OC)[C@H](OC(C)=O)[C@]5(CC)C=CCN6CC[C@]43[C@@H]65)C2)C1" in your reply.
50 nM

Supply measured IC50 of "CCOc1ccc(C(=O)N[C@@]2(CC)C[C@H]3CN(CCc4c([nH]c5ccccc45)[C@@](C(=O)OC)(c4cc5c(cc4OC)N(C)[C@H]4[C@@](O)(C(=O)OC)[C@H](OC(C)=O)[C@]6(CC)C=CCN7CC[C@]54[C@@H]76)C3)C2)cc1OCC" in your reply.
6 nM

Supply measured IC50 of "CC[C@]1(NC(=O)c2ccc(NC(C)=O)cc2)C[C@H]2CN(CCc3c([nH]c4ccccc34)[C@@](C(=O)OC)(c3cc4c(cc3OC)N(C)[C@H]3[C@@](O)(C(=O)OC)[C@H](OC(C)=O)[C@]5(CC)C=CCN6CC[C@]43[C@@H]65)C2)C1" in your reply.
55 nM

Supply measured IC50 of "CC[C@]1(NC(=O)c2ccc3ocnc3c2)C[C@H]2CN(CCc3c([nH]c4ccccc34)[C@@](C(=O)OC)(c3cc4c(cc3OC)N(C)[C@H]3[C@@](O)(C(=O)OC)[C@H](OC(C)=O)[C@]5(CC)C=CCN6CC[C@]43[C@@H]65)C2)C1" in your reply.
70 nM

Supply measured IC50 of "CC[C@]1(NC(=O)c2ccc(Cl)c(Cl)c2)C[C@H]2CN(CCc3c([nH]c4ccccc34)[C@@](C(=O)OC)(c3cc4c(cc3OC)N(C)[C@H]3[C@@](O)(C(=O)OC)[C@H](OC(C)=O)[C@]5(CC)C=CCN6CC[C@]43[C@@H]65)C2)C1" in your reply.
80 nM

Supply measured IC50 of "CC[C@]1(NC(=O)c2ccc3c(c2)ncn3C)C[C@H]2CN(CCc3c([nH]c4ccccc34)[C@@](C(=O)OC)(c3cc4c(cc3OC)N(C)[C@H]3[C@@](O)(C(=O)OC)[C@H](OC(C)=O)[C@]5(CC)C=CCN6CC[C@]43[C@@H]65)C2)C1" in your reply.
8 nM
